All values here come from paper PMC5405701.

target: ERβ (Homo sapiens); assay: cell-based; type: cell-based; settings: HEK-293T, 24 h, read-out: Agonist Mode ERβ Eff (%E2)
Sequence (Q92731 whole entry): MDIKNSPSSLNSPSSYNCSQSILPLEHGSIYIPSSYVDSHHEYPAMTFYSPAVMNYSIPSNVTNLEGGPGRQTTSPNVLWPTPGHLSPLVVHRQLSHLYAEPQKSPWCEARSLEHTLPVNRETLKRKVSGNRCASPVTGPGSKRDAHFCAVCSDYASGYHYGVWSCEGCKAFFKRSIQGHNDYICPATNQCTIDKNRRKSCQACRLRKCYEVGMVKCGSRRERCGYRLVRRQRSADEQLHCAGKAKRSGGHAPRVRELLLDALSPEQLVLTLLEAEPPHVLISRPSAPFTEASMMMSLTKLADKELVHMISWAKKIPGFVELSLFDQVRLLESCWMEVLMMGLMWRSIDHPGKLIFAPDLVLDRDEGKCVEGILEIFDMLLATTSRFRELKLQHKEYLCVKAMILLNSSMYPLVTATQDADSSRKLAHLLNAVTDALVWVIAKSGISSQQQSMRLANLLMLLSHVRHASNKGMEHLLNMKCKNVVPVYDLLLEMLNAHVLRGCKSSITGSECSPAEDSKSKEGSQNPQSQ
readout.name: Emax (%)

compound="Cc1cc(O)cc(C)c1-c1ccc(-c2c(C)cc(O)cc2C)[se]1 [Compound 2e]" tested_target="ERβ (Homo sapiens)" readout_name=Emax reported_value=60
compound="Oc1ccc(-c2ccc(-c3ccc(O)cc3)[se]2)cc1 [Compound 2a, 2,5-Bis(4-hydroxyphenyl)selenophene]" tested_target="ERβ (Homo sapiens)" readout_name=Emax reported_value=11
compound="Cc1cc(O)ccc1-c1cc(Br)c(-c2ccc(O)cc2C)[se]1 [Compound 6b]" tested_target="ERβ (Homo sapiens)" readout_name=Emax reported_value=69
